Recorded SPOT peptide array binding signal intensity, one value per entry.
TARGET OR SYSTEM: CaBzz1-D2
MEASUREMENT DESCRIPTION: SPOT peptide array binding signal intensity (averaged, normalized) (arbitrary units (background-subtracted, floor 0; scale differs between SH3 domains)); higher = stronger binding of the SH3 domain to the peptide
Just the number, please.

INPUT: Retrieve SPOT peptide array binding signal intensity measured for TSFKGRPKPPKTLKH and print it.
OUTPUT: 67.8

INPUT: Retrieve SPOT peptide array binding signal intensity measured for KRRAPPPVPKKPSSR and print it.
OUTPUT: 4490

INPUT: Retrieve SPOT peptide array binding signal intensity measured for PELAPKREAPKPPAN and print it.
OUTPUT: 265

INPUT: Retrieve SPOT peptide array binding signal intensity measured for TYNRTAFQIPGDQSI and print it.
OUTPUT: 43.5

INPUT: Retrieve SPOT peptide array binding signal intensity measured for DGNEEKPLLPTRPNK and print it.
OUTPUT: 1.75

INPUT: Retrieve SPOT peptide array binding signal intensity measured for WRPRIVPILPYITRL and print it.
OUTPUT: 24.2

INPUT: Retrieve SPOT peptide array binding signal intensity measured for VQKRKLPLPGSIASA and print it.
OUTPUT: 44.6
